Recorded values, source patent US20120107323A1.

Test System: FAK and IGF-1R (Homo sapiens)
Construct: endogenous in cells; host or cells: C8161 (A2) and A375 (A3) melanoma cells
Sequence (Q05397 2-1052 limits assumed): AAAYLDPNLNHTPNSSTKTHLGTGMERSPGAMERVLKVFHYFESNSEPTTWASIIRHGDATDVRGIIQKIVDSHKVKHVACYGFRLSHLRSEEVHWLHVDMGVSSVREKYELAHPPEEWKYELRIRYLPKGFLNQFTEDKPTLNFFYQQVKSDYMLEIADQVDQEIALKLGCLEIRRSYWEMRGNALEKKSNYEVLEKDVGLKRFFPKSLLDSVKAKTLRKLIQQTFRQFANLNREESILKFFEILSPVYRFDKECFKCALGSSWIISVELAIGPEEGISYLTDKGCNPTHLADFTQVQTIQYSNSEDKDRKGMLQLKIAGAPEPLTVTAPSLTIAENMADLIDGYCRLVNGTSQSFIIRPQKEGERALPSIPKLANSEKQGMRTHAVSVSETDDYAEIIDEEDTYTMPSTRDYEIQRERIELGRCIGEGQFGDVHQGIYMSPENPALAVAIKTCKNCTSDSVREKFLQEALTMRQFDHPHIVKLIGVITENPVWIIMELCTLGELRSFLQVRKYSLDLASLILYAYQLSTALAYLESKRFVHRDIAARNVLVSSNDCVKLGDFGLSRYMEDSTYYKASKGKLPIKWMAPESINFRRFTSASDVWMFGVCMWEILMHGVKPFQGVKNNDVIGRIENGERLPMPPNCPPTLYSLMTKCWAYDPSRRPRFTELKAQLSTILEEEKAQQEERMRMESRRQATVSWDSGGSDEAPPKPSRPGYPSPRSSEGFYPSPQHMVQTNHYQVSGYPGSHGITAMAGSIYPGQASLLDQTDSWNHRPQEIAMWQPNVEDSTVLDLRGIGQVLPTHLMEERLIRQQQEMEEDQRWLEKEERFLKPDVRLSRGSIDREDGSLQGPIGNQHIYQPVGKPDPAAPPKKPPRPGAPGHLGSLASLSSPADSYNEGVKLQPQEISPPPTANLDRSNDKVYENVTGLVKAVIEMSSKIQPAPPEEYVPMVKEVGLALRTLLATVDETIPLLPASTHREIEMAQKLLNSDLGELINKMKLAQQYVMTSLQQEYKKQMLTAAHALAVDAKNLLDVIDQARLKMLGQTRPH
Method Summary: Coimmunoprecipitation of FAK and IGF-1R in A375 melanoma cells
Format: cell-based
Run Parameters: average IC50, A375 cells, immunoprecipitation with antibody against FAK; read-out: IC50, disruption of FAK/IGF-1R binding
Quantity Name: IC50 (µM)
A number alone suffices; assume µM.

The compound listed as CSc1ncnc2c1ccn2C1O[C@H](COP(=O)(O)O)[C@@H](O)[C@H]1O (stereo partly shown) has a reported IC50 of 3.17

----------
System: esophageal patient #5 cells
Method Summary: Cell viability (MTT), esophageal patient #5 cells
Assay type: cell-based
Run Parameters: Homo sapiens, average IC50
Quantity Name: pIC50
Convention used: pIC50 is expressed as -log10 of the molar concentration.

esophageal patient #5 cells data for CSc1ncnc2c1ccn2C1O[C@H](COP(=O)(O)O)[C@@H](O)[C@H]1O (stereo partly shown) [INT2-31] ; its pIC50: 5.66

----------
System: BT474 breast cancer cells
Method Summary: Cell viability (MTT), BT474
Format: cell-based
Run Parameters: Homo sapiens, BT-474; BT474, 72 hours; read-out: IC50 of INT2-31, cell viability
Quantity Name: IC50 (µM)
Your answer should be a plain number; it is taken to be in µM.

Bench note, BT474 breast cancer cells: entry CSc1ncnc2c1ccn2C1O[C@H](COP(=O)(O)O)[C@@H](O)[C@H]1O (stereo partly shown) , its IC50 = 2.39

----------
Tested on: C8161 melanoma cells
Method Summary: Cell viability (MTT), C8161
Assay type: cell-based, human
Run Parameters: Homo sapiens; C8161, 72 hours; read-out: IC50 of INT2-31, cell viability
Quantity Name: pIC50
// pIC50: -log10(molar conc.)

pIC50 recorded for this molecule, CSc1ncnc2c1ccn2C1O[C@H](COP(=O)(O)O)[C@@H](O)[C@H]1O (stereo partly shown) [INT2-31] , is 6.30

----------
Tested on: KYSE70 esophageal cancer cells
Method Summary: Cell viability (MTT), KYSE70
Type: cell-based
Run Parameters: Homo sapiens, KYSE-70; KYSE70, 72 hours; read-out: IC50 of INT2-31, cell viability
Quantity Name: IC50 (µM)
Respond numerically; units are µM and should not be typed.

The value of IC50 measured for the compound CSc1ncnc2c1ccn2C1O[C@H](COP(=O)(O)O)[C@@H](O)[C@H]1O (stereo partly shown) [INT2-31] turned out to be 4.6

----------
Test system: AsPC1 pancreatic cancer cells
Method Summary: Cell viability (MTT), AsPC1
Assay type: cell-based
Run Parameters: Homo sapiens; AsPC1, 72 hours; read-out: IC50 of INT2-31, cell viability
Method: Cell viability (MTT) and CFSE Proliferation assay: Cells were plated in 96-well plates and let adhere overnight. After cell treatment, cell viability was measured by 3-(4,5-dimethylthiazol-2-yl)-2,5-diphenyl tetrazolium bromide (MTT) assay (CellTiter 96® Aqueous, Promega, Madison, Wis.). […] In addition, the effect of INT2-31 on cell viability of esophageal, pancreatic and breast cancer cell lines was analyzed and the IC50 value for each cell line was determined, as shown in Table 1. […]
Quantity Name: IC50

For CSc1ncnc2c1ccn2C1O[C@H](COP(=O)(O)O)[C@@H](O)[C@H]1O (stereo partly shown) the compound record lists IC50 as 16.9 µM

----------
Sequence of the target: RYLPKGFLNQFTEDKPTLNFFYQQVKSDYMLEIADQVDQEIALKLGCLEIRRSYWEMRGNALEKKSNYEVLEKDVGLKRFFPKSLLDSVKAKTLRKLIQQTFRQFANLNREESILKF
Quantity Name: IC50 (µM)
Write the number in µM without appending the unit.

Consider CSc1ncnc2c1ccn2C1O[C@H](COP(=O)(O)O)[C@@H](O)[C@H]1O (stereo partly shown) . Its measured IC50 is 3.96

----------
System: BxPC3 pancreatic cancer cells
Method Summary: Cell viability (MTT), BxPC3
Type: cell-based
Run Parameters: Homo sapiens, BXPC-3; BxPC3, 72 hours; read-out: IC50 of INT2-31, cell viability
Quantity Name: IC50 (µM)
Report only the number, with the unit µM understood.

Field IC50 (system: BxPC3 pancreatic cancer cells) for entry CSc1ncnc2c1ccn2C1O[C@H](COP(=O)(O)O)[C@@H](O)[C@H]1O (stereo partly shown) = 45.6

----------
Test system: MCF7 breast cancer cells
Method Summary: Cell viability (MTT), MCF7
Format: cell-based
Run Parameters: Homo sapiens; MCF7, 72 hours; read-out: IC50 of INT2-31, cell viability
Quantity Name: pIC50
Value format note: pIC50 is -log10 of concentration (mol/L); just state the number.

// sample CSc1ncnc2c1ccn2C1O[C@H](COP(=O)(O)O)[C@@H](O)[C@H]1O (stereo partly shown) , its pIC50 was 7.52

----------
Test System: FAK and IGF-1R (Homo sapiens)
Construct: endogenous in cells; host or cells: C8161 (A2) and A375 (A3) melanoma cells
Method Summary: Coimmunoprecipitation of FAK and IGF-1R in C8161 melanoma cells
Format: cell-based
Run Parameters: average IC50, C8161 cells, immunoprecipitation with antibody against FAK; read-out: IC50, disruption of FAK/IGF-1R binding
Quantity Name: IC50 (nM)
// units = nM; emit number, no label

The measured IC50 associated with CSc1ncnc2c1ccn2C1O[C@H](COP(=O)(O)O)[C@@H](O)[C@H]1O (stereo partly shown) [INT2-31] reads 2720
